# assay: Cytotoxicity against human HeLa cells assessed as cell viability at 50 ug/ml after 72 hrs by MTT assay
# Assay type: cell-based
# measurement_setup: read-out: Activity
experimental_endpoint: viability at 72 h, 50 ug/ml

Solved entries:
>>> df
                              sample_smiles  measured_value
0  Cl.N=C(N)c1ccc(SCCOCCSc2ccc(C(=N)N)cc2)cc1            7.8%
1  Cl.N=C(NC1CCCCC1)c1ccc(OCCSCCOc2ccc(C(=N)NC3CCCCC3)cc2)cc1           96.6%
2  CCCCNC(=N)c1ccc(OCCSCCOc2ccc(C(=N)NCCCC)cc2)cc1.Cl           88.3%

# molecule Cl.c1cc(C2=NCCN2)ccc1OCCSCCOc1ccc(C2=NCCN2)cc1 ; its viability at 72 h, 50 ug/ml = 68.1%
